Data origin, for the record: patent US20250049800A1

# System: SK-OV-3 (Ovary)
# assay.info: Cell Titer-Glo viability: single agent IC50 and Compound 1 + PARP inhibitor matrix (Bliss)
# Assay type: cell-based
# experimental.context: single agent, read-out: Absolute IC50
quantity.measured: pIC50
Scale explanation: pIC50 corresponds to minus log10 of a concentration expressed in moles per litre.

Give a short answer stating reported pIC50 for N.N.[Cl][Pt][Cl] [Cisplatin] .
5.08

###

# assay.info: Phase I study: plasma pharmacokinetics of orally administered Compound 1
# Type: in vivo, human
# experimental.context: human, plasma, oral, 350 mg, 350 mg BID, Day 4, Mean
quantity.measured: Tmax

Give a short answer stating reported Tmax for `Cc1cc2c(C(N)=O)cccc2n1-c1nc2c(c(NCc3ccccc3)n1)CCCN2` .
3.25 h

###

# Test system: HL-60 cell line
# assay.info: Cell Titer-Glo viability, fixed agent + dose response agent combinations
# Type: cell-based, human
# experimental.context: Homo sapiens, HL-60, HL-60; fixed agent Compound 1 - 210 nM; read-out: IC50
quantity.measured: IC50
Report field: quantity (unit follows the number).

Give a short answer stating reported IC50 for Nc1ncn([C@@H]2O[C@H](CO)[C@@H](O)[C@H]2O)c(=O)n1 [Azacitidine, azacitidine, reference compound] .
1.96 µM

###

# assay.info: Phase I study: plasma pharmacokinetics of orally administered Compound 1
# Type: in vivo, human
# experimental.context: human, plasma, oral, 450 mg, 450 mg QD, Day 1, Mean
quantity.measured: Tmax (h)
Form entry: value (h) — number only.

Give a short answer stating reported Tmax for Cc1cc2c(C(N)=O)cccc2n1-c1nc2c(c(NCc3ccccc3)n1)CCCN2 [Compound 1] .
3

###

# assay.info: Phase I study: plasma pharmacokinetics of orally administered Compound 1
# Format: in vivo, human
# experimental.context: human, plasma, oral, 175 mg, 175 mg QD, Day 4, Mean
quantity.measured: Tmax (h)
Form entry: value (h) — number only.

Give a short answer stating reported Tmax for Cc1cc2c(C(N)=O)cccc2n1-c1nc2c(c(NCc3ccccc3)n1)CCCN2 [Compound 1] .
13.5

###

# Tested on: MOML-13 cell line
# assay.info: Cell Titer-Glo viability, fixed agent + dose response agent combinations
# Type: cell-based, human
# experimental.context: Homo sapiens, MOML-13; fixed agent Venetoclax + Azacitidine - 20 nM; read-out: IC50
quantity.measured: IC50 (nM)
Form entry: value (nM) — number only.

Give a short answer stating reported IC50 for Cc1cc2c(C(N)=O)cccc2n1-c1nc2c(c(NCc3ccccc3)n1)CCCN2 [Compound 1] .
113

###

# assay.info: Phase I study: plasma pharmacokinetics of orally administered Compound 1
# Type: in vivo, human
# experimental.context: human, plasma, oral, 750 mg, 750 mg QD, Day 4, Mean
quantity.measured: half-life (h)
Form entry: value (h) — number only.

Give a short answer stating reported half-life for `Cc1cc2c(C(N)=O)cccc2n1-c1nc2c(c(NCc3ccccc3)n1)CCCN2` .
6.67

###

# assay.info: Phase I study: plasma pharmacokinetics of orally administered Compound 1
# Format: in vivo, human
# experimental.context: human, plasma, oral, 600 mg, 600 mg QD, Day 4, Mean
quantity.measured: Tmax (h)
Form entry: value (h) — number only.

Give a short answer stating reported Tmax for `Cc1cc2c(C(N)=O)cccc2n1-c1nc2c(c(NCc3ccccc3)n1)CCCN2` .
3.4
